Item-by-item account of pIC50
Test system: HT-29
ASSAY METHOD TEXT: cells
Format: cell-based
RUN PARAMETERS: Homo sapiens, HT-29; read-out: Basal_Viability ATP HT-29
Conceptually, pIC50 converts a concentration in mol/L into minus its log10.

Sample records with pIC50:
MOLECULE: Cc1ccc2nc(N)[nH]c(=O)c2c1Sc1ccncc1 [nolatrexed, reference compound]
ASSAY VALUE: 5.32
//
MOLECULE: COc1ccc2cc1Oc1ccc(cc1)C[C@H]1c3c(cc4c(c3Oc3cc5c(cc3OC)CCN(C)[C@@H]5C2)OCO4)CCN1C
ASSAY VALUE: 5.87

stdin: Complete the entry with pIC50 for CC(=O)O[C@@]12CO[C@@H]1C[C@H](O)[C@@]1(C)C(=O)[C@H](O)C3=C(C)[C@@H](OC(=O)[C@H](O)[C@@H](NC(=O)OC(C)(C)C)c4ccccc4)C[C@@](O)([C@@H](OC(=O)c4ccccc4)[C@H]21)C3(C)C
stdout: 9.00
